# Study System: Long-chain-fatty-acid--AMP ligase FadD28 (Mycobacterium tuberculosis, UniProt P9WQ59)
# Sequence (P9WQ59 whole entry): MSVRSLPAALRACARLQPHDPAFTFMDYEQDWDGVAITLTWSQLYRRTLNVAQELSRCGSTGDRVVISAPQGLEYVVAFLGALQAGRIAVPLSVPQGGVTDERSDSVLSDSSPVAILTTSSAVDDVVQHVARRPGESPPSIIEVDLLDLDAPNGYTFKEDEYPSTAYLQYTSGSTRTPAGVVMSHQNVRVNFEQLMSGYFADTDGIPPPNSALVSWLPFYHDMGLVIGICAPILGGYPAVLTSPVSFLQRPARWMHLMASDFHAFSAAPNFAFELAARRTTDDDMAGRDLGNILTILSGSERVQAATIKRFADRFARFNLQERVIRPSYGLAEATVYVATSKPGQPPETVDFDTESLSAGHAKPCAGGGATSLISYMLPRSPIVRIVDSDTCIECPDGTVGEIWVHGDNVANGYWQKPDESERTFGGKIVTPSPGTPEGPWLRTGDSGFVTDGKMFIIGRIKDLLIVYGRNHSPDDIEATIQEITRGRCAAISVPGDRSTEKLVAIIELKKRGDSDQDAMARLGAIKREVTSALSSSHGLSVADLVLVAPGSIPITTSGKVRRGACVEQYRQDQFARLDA
# Method: Fluorescence polarization aasay to screen for inhibitors that compete for the binding of FadD28 to a bisubstrate Measured in Biochemical System Using Plate Reader - 2147-01_Inhibitor_Dose_CherryPick_Activity.
# Format: functional, Mycobacterium tuberculosis H37Rv
Calls of active or inactive are those of the source. The rule behind the calls is not given here.
Outcome codes: label 1 = active, label 0 = inactive

| Compound | Study System | Class Label |
| --- | --- | --- |
| CC1(C)Oc2cc3oc(-c4cc(O)cc(O)c4)cc3cc2CC1O (stereo not drawn) [(+/-)-MORACIN P] | Long-chain-fatty-acid--AMP ligase FadD28 (Mycobacterium tuberculosis, UniProt P9WQ59) | label 1 |
| CCCCCC1C(=O)N2C=C(c3ccccc3)c3ccccc3N2C1=O (centres undefined) [CINTAZONE] | Long-chain-fatty-acid--AMP ligase FadD28 (Mycobacterium tuberculosis, UniProt P9WQ59) | label 1 |
| NS(=O)(=O)c1ccc(CNC(=O)C(Cc2ccccc2)NS(=O)(=O)c2ccccc2F)cc1 (centres undefined) | Long-chain-fatty-acid--AMP ligase FadD28 (Mycobacterium tuberculosis, UniProt P9WQ59) | label 1 |
| O=C(Nc1sc2c(c1C(=O)O)CCCC2)c1cccc(Cl)c1 | Long-chain-fatty-acid--AMP ligase FadD28 (Mycobacterium tuberculosis, UniProt P9WQ59) | label 0 |

---

# Study System: Caspase-6 (Homo sapiens)
# Sequence (P55212 24-179 limits assumed): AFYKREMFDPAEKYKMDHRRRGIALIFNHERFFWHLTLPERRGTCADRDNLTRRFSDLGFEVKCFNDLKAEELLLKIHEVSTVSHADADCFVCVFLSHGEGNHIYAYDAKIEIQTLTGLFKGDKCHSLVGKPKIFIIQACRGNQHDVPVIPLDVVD
# Sequence (P55212 194-293 limits assumed): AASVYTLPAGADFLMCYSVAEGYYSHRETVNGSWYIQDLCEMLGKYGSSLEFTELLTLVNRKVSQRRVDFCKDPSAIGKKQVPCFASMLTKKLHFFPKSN
# Method: inhibition of CASP6 peptide cleavage – biochemical, VEID-R110 fluorescence, cherry-pick, dose response (AID 720632)
The source made the active and inactive calls. How the calls were made is not given here.
Readout: AC50

| Compound Structure | Value |
| --- | --- |
| CCOc1ccc(S(=O)(=O)Nc2ccc(O)c(Sc3nnc[nH]3)c2)cc1 | 51.3 µM (active) |
| Cc1cccc(OCC(=O)NNC(=O)c2ccc3[nH]cnc3c2)c1 | 44 µM (active) |
| Cn1c(=O)[nH]c2nncnc2c1=O | 7.06 µM (active) |
| O=C(O)c1c2c(nc3ccccc13)/C(=C/c1ccc(O)cc1)CC2 | 2 µM (active) |
| Cc1ccccc1N1C(=O)Cc2ccccc2C1=O | 27.4 µM (active) |
| Cc1ccc(S(=O)(=O)NC2=NC(=O)/C(=C/c3cc([N+](=O)[O-])ccc3O)S2)cc1 | 10.7 µM (active) |
| Cc1ccc(NC(=O)CN(C)C(=O)Cn2ncc(Cl)c(Cl)c2=O)cc1 | 5.9 µM (active) |
